Target: T1, human ASCT2-myc/His (fusion protein in which myc/His was added to the C-terminal of human ASCT2), expressed … (human, UniProt Q15758 1-541)
T1 construct: Amino acid transporter with C-terminal myc/His tag, stably expressed in CHO/DG44 cells; cell lysates of these cells were used for Western blotting and immunoprecipitation; also called ASCT2/CHO; human ASCT2-myc/His gene-introduced CHO cell
T1 sequence: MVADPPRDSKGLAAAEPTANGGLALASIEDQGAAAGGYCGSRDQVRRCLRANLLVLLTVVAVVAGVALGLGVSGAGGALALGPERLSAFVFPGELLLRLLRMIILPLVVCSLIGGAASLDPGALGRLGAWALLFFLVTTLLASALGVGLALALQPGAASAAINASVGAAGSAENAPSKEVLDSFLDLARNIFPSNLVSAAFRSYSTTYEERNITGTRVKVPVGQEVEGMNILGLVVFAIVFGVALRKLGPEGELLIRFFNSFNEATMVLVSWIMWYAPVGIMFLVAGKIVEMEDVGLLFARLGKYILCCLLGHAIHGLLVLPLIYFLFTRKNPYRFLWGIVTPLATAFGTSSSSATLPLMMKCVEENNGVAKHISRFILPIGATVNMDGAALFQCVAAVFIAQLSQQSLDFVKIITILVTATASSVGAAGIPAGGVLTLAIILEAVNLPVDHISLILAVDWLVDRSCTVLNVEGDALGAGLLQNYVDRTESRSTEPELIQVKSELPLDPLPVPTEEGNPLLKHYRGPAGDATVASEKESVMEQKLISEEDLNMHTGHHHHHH
Test: flow cytometry on human ASCT2-myc/His gene-introduced CHO cells
ASSAY_METRIC: binding result

anti-ASCT2 human chimeric antibody cKM4018 (antibody, V domains shown, VH and VL of KM4018 joined to human CH and CL of vector pKANTEX93; IgG class) VH: EVQLVESGGGLVQSGRSIRLSCAASGFSFSNYYMAWVRQAPSKGLEWVASITKGGGNTYYRDSVKGRFTFSRDNAKSTLYLQMDSLRSEDTATYYCARQVTIAAVSTSYFDSWGQGVMVTVSS VL: DIVLTQSPALAVSLGQRATISCKTNQKVDYYGNSYVYWYQQKPGQQPKLLIYLASNLASGIPARFSGRGSGTDFTLTIDPVEADDTATYYCQQSRNLPYTFGAGTKLELKR: binds
